These measurements were taken from ChEMBL document CHEMBL1150808.

- assay-details: Toxicity in Swiss albino mouse assessed as death after 5 days assessed after 24 hrs post treatment by Irwin test
- Format: organism-based
- study-conditions: in vivo
quantity-kind: LD50 at 5 days (mg/kg)

1. O=C1OCc2c1cc1ccc(O)c(O[C@@H]3O[C@H](CO)[C@@H](O)[C@H](O)[C@H]3O)c1c2-c1ccc2c(c1)OCO2 [ELENOSIDE]    3.05
